3' UTR reporter interaction score overview
tested on: MYCN; test: 3' UTR reporter interaction score (median-centred robust z-score of log2 firefly/Renilla activity); higher = less repression of the 3' UTR reporter; conditions: HEK293T; 48 h

{"item-sequence": "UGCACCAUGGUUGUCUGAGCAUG", "study-target": "MYCN", "3' UTR reporter interaction score": -5.44}
{"item-sequence": "AGGUUGACAUACGUUUCCC", "study-target": "MYCN", "3' UTR reporter interaction score": -0.377}
{"item-sequence": "AGGCUGCGGAAUUCAGGAC", "study-target": "MYCN", "3' UTR reporter interaction score": 0.119}
{"item-sequence": "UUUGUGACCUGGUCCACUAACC", "study-target": "MYCN", "3' UTR reporter interaction score": 0.167}
{"item-sequence": "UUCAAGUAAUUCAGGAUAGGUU", "study-target": "MYCN", "3' UTR reporter interaction score": 0.732}
{"item-sequence": "AGCUCGGUCUGAGGCCCCUCAG", "study-target": "MYCN", "3' UTR reporter interaction score": -0.643}
{"item-sequence": "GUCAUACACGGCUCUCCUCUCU", "study-target": "MYCN", "3' UTR reporter interaction score": -1.89}
{"item-sequence": "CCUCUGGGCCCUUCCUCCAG", "study-target": "MYCN", "3' UTR reporter interaction score": 0.2}
{"item-sequence": "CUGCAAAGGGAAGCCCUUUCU", "study-target": "MYCN", "3' UTR reporter interaction score": 1.29}
{"item-sequence": "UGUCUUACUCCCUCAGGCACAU", "study-target": "MYCN", "3' UTR reporter interaction score": -1.1}
{"item-sequence": "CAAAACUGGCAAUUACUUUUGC", "study-target": "MYCN", "3' UTR reporter interaction score": -0.107}
{"item-sequence": "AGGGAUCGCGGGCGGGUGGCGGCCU", "study-target": "MYCN", "3' UTR reporter interaction score": -0.927}
{"item-sequence": "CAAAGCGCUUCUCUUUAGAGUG", "study-target": "MYCN", "3' UTR reporter interaction score": -0.402}
{"item-sequence": "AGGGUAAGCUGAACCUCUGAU", "study-target": "MYCN", "3' UTR reporter interaction score": 1.35}
{"item-sequence": "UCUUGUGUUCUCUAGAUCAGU", "study-target": "MYCN", "3' UTR reporter interaction score": 0.747}
{"item-sequence": "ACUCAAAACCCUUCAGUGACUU", "study-target": "MYCN", "3' UTR reporter interaction score": -0.913}
